biological target: ABL1 WT kinase (Homo sapiens (Human), UniProt P00519)
Sequence (P00519 whole entry): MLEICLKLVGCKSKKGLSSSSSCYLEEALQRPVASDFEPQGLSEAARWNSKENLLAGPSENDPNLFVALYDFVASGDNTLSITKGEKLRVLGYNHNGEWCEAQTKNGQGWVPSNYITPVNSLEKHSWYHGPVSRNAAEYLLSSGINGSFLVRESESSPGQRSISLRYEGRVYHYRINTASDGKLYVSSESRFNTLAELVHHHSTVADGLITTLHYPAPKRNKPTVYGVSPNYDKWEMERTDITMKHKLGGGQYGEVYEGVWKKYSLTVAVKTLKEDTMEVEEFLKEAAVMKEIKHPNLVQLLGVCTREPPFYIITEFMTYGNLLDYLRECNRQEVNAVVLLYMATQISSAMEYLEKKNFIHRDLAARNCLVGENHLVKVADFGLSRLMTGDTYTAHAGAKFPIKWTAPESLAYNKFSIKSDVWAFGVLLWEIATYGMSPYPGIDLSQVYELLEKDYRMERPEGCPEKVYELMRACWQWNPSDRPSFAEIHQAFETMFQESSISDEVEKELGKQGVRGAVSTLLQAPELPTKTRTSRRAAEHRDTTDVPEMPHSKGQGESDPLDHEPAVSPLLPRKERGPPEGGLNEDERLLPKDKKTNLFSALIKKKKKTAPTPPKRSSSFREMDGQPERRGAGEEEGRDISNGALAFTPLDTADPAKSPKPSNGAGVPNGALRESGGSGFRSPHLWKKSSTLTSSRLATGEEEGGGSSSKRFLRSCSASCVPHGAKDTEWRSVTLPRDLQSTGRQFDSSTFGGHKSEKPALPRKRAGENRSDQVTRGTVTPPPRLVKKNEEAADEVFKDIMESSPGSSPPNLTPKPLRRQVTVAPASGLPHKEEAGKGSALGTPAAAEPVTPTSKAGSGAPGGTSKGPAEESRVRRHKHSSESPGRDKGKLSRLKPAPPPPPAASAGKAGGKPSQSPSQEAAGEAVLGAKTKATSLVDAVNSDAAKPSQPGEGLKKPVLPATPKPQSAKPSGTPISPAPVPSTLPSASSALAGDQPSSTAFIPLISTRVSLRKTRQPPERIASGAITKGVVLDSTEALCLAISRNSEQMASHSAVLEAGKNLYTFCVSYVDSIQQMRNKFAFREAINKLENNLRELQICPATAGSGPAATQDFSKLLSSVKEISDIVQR
OBSERVED PROPERTY: IC50 (pM)
Answer format: numeric, pM implied, no suffix.

*Q* What does the record list as IC50 for C[C@@H]1COC2NC=NC=C2c2cc(C(=O)Nc3ccc(OC(F)(F)Cl)cc3)cc3nc(C(F)F)n1c23.Cc1ccc(S(=O)(=O)O)cc1 (stereo partly shown) [Example 1, p-toluenesulfonate Salt] ?
*A* 430

----------
test system: KCL22-r; assay: Inhibition of proliferation of KCL22-r cells (CellTiter-Glo); assay type: cell-based; conditions: Homo sapiens, 72 h, imatinib-resistant strain
OBSERVED PROPERTY: IC50 (nM)
Answer format: numeric, nM implied, no suffix.

*Q* What does the record list as IC50 for C[C@@H]1COC2NC=NC=C2c2cc(C(=O)Nc3ccc(OC(F)(F)Cl)cc3)cc3nc(C(F)F)n1c23.Cc1ccc(S(=O)(=O)O)cc1 (stereo partly shown) [Example 1, p-toluenesulfonate Salt] ?
*A* 14.6
